test-readout: melting point

CCCNC(=O)c1cc(-c2ccc(OC)cc2)nn(CC2CC2)c1=O: 101 to 102 °C
O=c1c2c(oc3ccc(Br)cc13)CCCC2: 149 to 150 °C
CC(C)(C)c1ccc(NC(=O)c2ccccc2SSc2ccccc2C(=O)Nc2ccc(C(C)(C)C)cc2)cc1: 135 to 138 °C
CCOC(=O)Cn1ncc(-c2ccccc2)c1-c1ccc(O)cc1: 130 to 135 °C
COC1(Cl)C=CC=CC1Oc1c(Cl)ncnc1Cl (centres undefined): 88 to 89 °C

melting point lookup needed for CCCCCCc1ccc(-n2c(-c3ccc(C)cc3)ccc2-c2ccc(C)cc2)cc1 , thanks.
147 to 148 °C

Fill in the blank: the reported melting point of NS(=O)(=O)c1ccc(/C(=C(\CCO)C(=O)O)c2ccc(F)cc2)cc1 is ____.
160 to 162 °C

Recorded melting point for CCC1CC(=O)N(Cc2ccc(NS(C)(=O)=O)cc2)N=C1c1ccc(OC)c(OC2CCCC2)c1 (centres undefined) , please?
69 °C

# get_value(readout='melting point', item= O=C(c1ccccn1)c1cnn2c(-c3cccc(NC(=O)C4CC4)c3)ccnc12 )
214 to 215 °C

----------
Measured melting point, listed per entry.

Previously resolved entries follow.
Cc1cc(-c2nnc(C(C)(C)C)o2)ccc1N=CN(C)C: 79 to 80 °C
COc1ccc(C2=NN(Cc3ccc(OCCCCBr)cc3)C(=O)[C@@H]3CC=CC[C@H]23)cc1OC: 42 to 46 °C
CC(C)Sc1nc(-c2nn(C)c(OC(F)F)c2Cl)c(F)cc1Cl: 63 to 64 °C
Cc1ccc2cc(C)[nH]c2c1: 74 to 76 °C
O=C(O)c1cc(-c2ccc(Cl)cc2)n(-c2ccc(Cl)cc2Cl)n1: 185 °C
COC(=O)Cc1ccc(OC(=S)N(C)C)cc1F: 113 to 114 °C
Cc1ccc2c(c1C)C(=O)CC2: 43 to 44 °C
COc1ccc(CNc2nnc(OCCCO)c3ccc(Cl)cc23)cc1Cl: 124 to 126 °C
Cc1c(CO)oc2ccc([N+](=O)[O-])cc12: 149 to 150 °C
COc1ccc(CCN(CCC2CCCCC2)C(=O)CCCCC(N)=O)cc1OC: 158 to 160 °C

Return reported melting point; argument: COc1ccc(CCN(C)CCC2CN(C)C(=S)c3cccnc3O2)cc1 (configuration not stated)
75 to 78 °C

What does the record list as melting point for CC(=O)OC1CSC(Oc2cnccc2-c2c(C)noc2C)C(OC(C)=O)C1OC(C)=O (configuration not stated) ?
150 to 155 °C

Which value of melting point has been reported for CC(C)(C)OC(=O)C(NN)C(=O)O (configuration not stated) in the records?
144 to 146 °C

Recorded melting point of CC(CC1=Nc2cc(Cl)ccc2S(=O)(=O)N1)CC(C)(C)C (configuration not stated) , please.
243 to 244 °C

What measured melting point goes with Fc1ccc(Cn2c(NC3CCNCC3)nc3ccccc32)cc1 ?
216 °C

Using the record for CN(C)c1ccc(N2CCN(Cc3c[nH]c4ncccc34)CC2)cc1 , report its melting point.
199 to 201 °C

Reported melting point, compound Cc1oc(-c2ccccc2)nc1CCC(=O)c1ccc(Br)cc1 : ____
80 to 81 °C

Entry O=C(NC[C@H](O)c1ccccc1)c1ccnc(N2CCN(Cc3ccc(F)cc3)C2=O)c1 has what melting point?
97 to 99 °C

Need melting point, item CSC(=Cc1ccc(N)cc1)S(C)=O (configuration not stated)
165 to 166 °C

I am curious: what melting point value has been reported for CCCCN(CCCC)C(=O)c1c(C)n(CCc2ccccc2)c2ccc(O)c(CN3CCCCC3)c12 ?
105 to 107 °C

Item CCc1[nH]n(C2CCCC2)c2nc(-c3ccc4c(c3)CCO4)nc(=O)c1-2 has what recorded melting point?
253 to 254 °C

Value lookup for melting point; key = CCCc1c(OCCCCCOc2ccccc2OCC(=O)O)ccc2c1OCCC2=O
98 to 99 °C

----------
test-readout: melting point

Example entries begin here.
CC(C)[C@H](NC(=O)OCc1ccccn1)C(=O)O: 116 to 118 °C
CC(=O)C(=Cc1cc(Cl)cc(Cl)c1)C(C)=O: 85 to 87 °C
COc1ccc(COc2c(C)c(C)c3c(c2C)CC2(CCN(Cc4ccccc4)CC2)O3)cc1: 85 to 86 °C

The record that follows has no melting point shown yet.
# melting point lookup, item CC(C)(C)c1nc(-c2ccc3ccccc3c2)c(-c2ccncc2)[nH]1
218 to 220 °C

----------
melting point by entry:

Examples with their reported melting point follow.
Cc1ccc(S(=O)(=O)N2CCN(C(=O)c3cc4cc(O)ccc4cc3O)CC2)cc1: 135 to 137 °C
N#Cc1ccc(C(Cl)=NNc2c(Cl)cc(C(F)(F)F)cc2Cl)cc1: 168 to 169 °C
O=C(NCCN1CCC(O)(c2ccc(Cl)cc2)CC1)c1ccccc1: 169 °C

Recorded melting point of N#Cc1ccc(N(Cc2ccc(OCc3ccccc3)cc2)n2cnnc2)cc1 , please.
206 to 211 °C

Which melting point reading was recorded for the compound CC(=O)c1nc2ccc(OC(C)C)cc2cc1OCc1ccccc1 ?
102 to 104 °C

----------
test-readout: melting point

Clc1ccc2c(c1)Nc1ncccc1N=C2c1ccccc1: 250 to 252 °C
COc1cc(C(=O)N2CCN(C(=O)c3cc(OC)c(OC)c(OC)c3)C(CNC(=O)OC(C)C)C2)cc(OC)c1OC (stereo unspecified): 140 °C
CCOC(=O)c1cc(O)c2cc3c(O)cc(C(=O)OCC)nc3c(N3CCCCCC3)c2n1: 301 to 302 °C
Cc1ccc(C2=NN=C(c3ccccc3Cl)N(C)N2)cc1: 152 to 154 °C
CCCCCCCCC/C=C(\C)C(=O)O: 28 to 31 °C

Could you share which melting point value was measured for Cc1oc(-c2ccccc2)nc1COc1nn(Cc2ccc(Oc3ccccc3)cc2)cc1C(=O)O ?
222 to 223 °C

Request the reported melting point associated with NS(=O)(=O)c1cc2c(Cl)c(N3CCOCC3)ccc2s1
195 to 199 °C

melting point lookup needed for COc1ccc2sc(C(N)=O)c(SC(C)C)c2c1 , thanks.
143 to 144 °C

What value of measured melting point is listed for COC(=O)C(C)(C)Nc1ccc(OCc2ccccc2)cc1 ?
< 50 °C

Can you share its melting point? I mean this compound: COc1cc(OC)nc(C2OC(=O)c3ncccc32)n1 (stereo unspecified)
167 to 168 °C

I would be grateful if you could share the reported melting point for CC(C)(O)C#Cc1ccc(Br)cc1 .
62 °C

----------
The label Met is reserved for melting point strictly under 100 °C; Not met covers values equal to or above it.

Below are worked cases with known answers.
ClC(Cl)=CCOc1cc(Cl)c(OCC=Cc2ccccc2)c(Cl)c1: Met
COc1cc(C(=O)c2nc(-c3ccc[nH]3)c3ccccn23)ccc1N: Not met
CCCCC1(O)CCC2C3CCC4=CC(=O)CC(C)C4(C)C3CCC21C (stereo not given): Met
Cc1ccc(S(=O)(=O)OCC2COc3ccc4nc(C)oc4c3O2)cc1 (stereo not given): Not met

API: query returns whether the compound falls strictly under 100 °C in melting point. Query: O=C(O)[C@@H]1CN(CCn2c(=O)ccc3c(F)cc(F)cc32)CC[C@H]1NCc1cc2c(cn1)OCCO2
Not met

Criterion: melting point strictly below 100 °C. Is it met by O=C(c1ccc(Cl)cc1)c1ccc2[nH]c(=O)nc(-c3cccc(Cl)c3)c2c1 ?
Not met

----------
Below, each of the molecules is paired with its reported melting point value.

CC1(C)CC(=O)c2c(nc(Cc3ccc(O)c(F)c3)c3[nH]c4ccccc4c23)C1: 216 to 218 °C

# input molecule: CCOC(=O)CCCc1sc(N)nc1-c1ccc(Cl)cc1 ; wanted: its melting point
114 to 115 °C

Can you share its melting point? I mean this molecule: COc1ccc(P2Oc3ccccc3-c3ccccc32)cc1 (stereo unspecified)
104 to 106 °C

----------
Readings of melting point for the listed compounds

# count of solved cases: 4
Fc1cccc2c(NCCc3cccs3)ccnc12: 157 to 158 °C
COc1cc(OC)nc(OC(C(=O)O)C2c3ccccc3CC2C)n1 (stereo not given): 148 to 151 °C
CC1(C)CCC(C)(C)c2c(C=O)cc(-c3ccccc3)cc21: 113 °C
Cc1cn(C(C)C(=O)N(C)C)nc1-c1ccccc1Cl (stereo not given): 98.5 to 100 °C

# query: melting point of entry OCC(O)(CO)c1ccc(F)cc1F
58 to 59 °C

Given the entry COC(=O)C1(O)CC(OC(C)=O)C(NC(=O)Cc2cc(=O)oc3cc(OC(C)=O)ccc23)C(C(OC(C)=O)C(COC(C)=O)OC(C)=O)O1 (stereo not given) , report its measured melting point.
105 °C

What value of measured melting point is listed for O=C(On1nnc2ccccc21)c1ccc2c(c1)OC(c1ccccc1)(c1ccccc1)O2 ?
158 to 160 °C

Returns the measured melting point for the input compound. Input: CC1=C(c2cccc(Cl)c2)n2ncc(C#N)c2N(C(=O)CCl)C1
132 to 135 °C

Need melting point of COc1cc(OCn2nnc3ccccc32)c(C=O)cc1-c1cccs1 , thanks.
137 to 138 °C

Quick one: melting point for CSc1cc2c(cc1C(F)(F)F)N(C(=O)Nc1ccc(-c3csc(-c4ccncc4)n3)cc1)CC2 ?
253 to 254 °C
